Attribution: ChEMBL document CHEMBL1649076

Measured IC50, listed per entry for reference.
Target: Tyrosine-protein kinase JAK2 (Homo sapiens)
Sequence (O60674 whole entry): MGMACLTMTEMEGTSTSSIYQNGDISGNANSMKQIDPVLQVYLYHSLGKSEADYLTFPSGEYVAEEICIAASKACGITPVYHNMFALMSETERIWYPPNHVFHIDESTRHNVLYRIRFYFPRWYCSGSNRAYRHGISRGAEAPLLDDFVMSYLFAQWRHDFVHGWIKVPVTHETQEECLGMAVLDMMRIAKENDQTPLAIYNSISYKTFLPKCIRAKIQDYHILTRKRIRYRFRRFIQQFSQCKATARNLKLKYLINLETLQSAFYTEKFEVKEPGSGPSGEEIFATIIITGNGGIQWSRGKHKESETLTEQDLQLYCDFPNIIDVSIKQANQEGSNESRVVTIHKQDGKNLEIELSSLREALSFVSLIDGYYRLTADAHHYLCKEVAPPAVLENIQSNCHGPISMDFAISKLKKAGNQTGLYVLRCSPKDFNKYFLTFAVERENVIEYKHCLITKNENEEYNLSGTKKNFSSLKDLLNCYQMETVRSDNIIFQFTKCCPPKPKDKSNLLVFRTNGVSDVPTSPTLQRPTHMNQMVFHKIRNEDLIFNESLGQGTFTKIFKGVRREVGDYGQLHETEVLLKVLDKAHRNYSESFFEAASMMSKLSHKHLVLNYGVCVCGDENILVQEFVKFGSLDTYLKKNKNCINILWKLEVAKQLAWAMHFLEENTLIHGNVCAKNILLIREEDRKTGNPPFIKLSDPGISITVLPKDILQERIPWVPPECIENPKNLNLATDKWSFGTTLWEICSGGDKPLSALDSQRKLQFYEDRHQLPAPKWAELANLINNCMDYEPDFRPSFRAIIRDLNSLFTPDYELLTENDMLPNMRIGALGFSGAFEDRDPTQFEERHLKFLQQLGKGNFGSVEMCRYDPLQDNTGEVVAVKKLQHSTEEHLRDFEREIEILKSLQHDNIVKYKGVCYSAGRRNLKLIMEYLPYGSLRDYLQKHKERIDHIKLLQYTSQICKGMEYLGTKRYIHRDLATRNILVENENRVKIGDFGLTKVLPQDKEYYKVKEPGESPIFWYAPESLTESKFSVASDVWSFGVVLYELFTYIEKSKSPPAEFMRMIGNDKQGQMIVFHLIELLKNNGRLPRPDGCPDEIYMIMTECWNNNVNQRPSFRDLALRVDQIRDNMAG
Assay: Inhibition of JAK2 using 5 mM of ATP
OBSERVED_PROPERTY: IC50 (nM)

SMILES_STRING	OBSERVED_PROPERTY	RECORDED_VALUE
Cc1cc(Nc2nc(N[C@@H](C)c3ncc(F)cn3)nc(N3CCOCC3)c2Cl)n[nH]1	IC50	9
COc1cc(Nc2cc(N3CCOCC3)nc(N[C@@H](C)c3ncc(F)cn3)n2)n[nH]1	IC50	30
COc1cc(Nc2nc(N[C@@H](C)c3ncc(F)cn3)nc(N3CCOCC3)c2F)n[nH]1	IC50	8
